Each recorded value in this set is attributed to patent US11685761B2.

Documented log10 EC50 across a set of compounds
measurement target: full-length HAQ STING (Homo sapiens, UniProt Q86WV6, G230A/H232R/R293Q/R71H)
Construct: made in house; host or cells: Trichoplusia ni (Hi-Five) insect cells, baculovirus generated in Sf21; crude membranes
Sequence (Q86WV6 with tags, fused parts or gaps R71H/G230A/H232R/R293Q): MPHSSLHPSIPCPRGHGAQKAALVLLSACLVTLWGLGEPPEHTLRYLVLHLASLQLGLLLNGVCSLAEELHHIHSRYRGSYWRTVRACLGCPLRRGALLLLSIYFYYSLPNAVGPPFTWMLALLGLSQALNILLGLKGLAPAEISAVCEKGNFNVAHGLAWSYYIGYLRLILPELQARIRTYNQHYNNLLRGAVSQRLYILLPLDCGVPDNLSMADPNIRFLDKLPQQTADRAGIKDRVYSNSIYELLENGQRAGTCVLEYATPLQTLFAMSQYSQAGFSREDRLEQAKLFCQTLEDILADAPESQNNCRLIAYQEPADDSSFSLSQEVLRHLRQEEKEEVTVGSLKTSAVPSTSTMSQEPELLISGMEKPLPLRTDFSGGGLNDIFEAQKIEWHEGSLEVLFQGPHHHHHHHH
assay details: 3H-cGAMP filtration binding assay (HAQ STING)
condition context: competition with tritiated cGAMP ligand; T. ni cell membranes overexpressing full-length HAQ STING
measured parameter: log10 EC50 (log10 of the value in nM)

compound	log10 EC50
Nc1ncnc2c1nnn2[C@@H]1O[C@@H]2COP(=O)(S)O[C@@H]3[C@H](F)[C@@H](COP(=O)(S)O[C@H]2[C@@H]1F)O[C@H]3n1cnc2c(=O)n3cc[nH]c3nc21 (single isomer, unassigned) [Example 23]	1.45
Nc1ncnc2c1ncn2[C@@H]1O[C@@H]2CO[P@@](=O)(S)O[C@@H]3[C@H](O)[C@@H](CO[P@@](=O)(S)O[C@H]2[C@H]1O)O[C@H]3n1ccc(=O)n2ccnc12 (single isomer, unassigned) [Example 1]	1.89
Nc1nc2c(nnn2[C@@H]2S[C@@H]3COP(=O)(S)O[C@H]4[C@H](F)[C@H](n5ccc6c(=O)[nH]cnc65)O[C@@H]4COP(=O)(S)O[C@@H]2[C@@H]3F)c(=O)[nH]1 (single isomer, unassigned) [Example 50]	0.60
Nc1ncnc2c1ncn2[C@@H]1S[C@@H]2CO[P@@](=O)(S)O[C@@H]3[C@H](O)[C@@H](CO[P@@](=O)(S)O[C@H]2[C@H]1O)O[C@H]3n1ccc(=O)n2ccnc12 (single isomer, unassigned) [Example 10]	0.48
Nc1ncnc2c1ncn2[C@@H]1O[C@@]23CO[C@@H]1[C@@H]2OP(=O)(S)OC[C@H]1O[C@@H](n2cnc4c(=O)n5cc[nH]c5nc42)[C@H](OP(=O)(S)OC3)[C@@H]1F (single isomer, unassigned) [Example 26]	1.28
Nc1nc2c(ncn2[C@@H]2S[C@@H]3COP(=O)(S)O[C@H]4[C@H](F)[C@H](n5ccc6c(=O)[nH]cnc65)O[C@@H]4COP(=O)(S)O[C@@H]2C3)c(=O)[nH]1 (stereo partly drawn) [Example 44]	0.00
Nc1ncnc2c1nnn2[C@@H]1O[C@@H]2COP(=O)(S)O[C@@H]3[C@H](O)[C@@H](COP(=O)(S)O[C@H]2[C@@H]1F)O[C@H]3n1ccc(=O)n2ccnc12 (stereo partly drawn) [Example 4]	1.77
Nc1ncnc2c1ccn2[C@H]1C[C@@H]2O[P@@](=O)(S)OC[C@H]3O[C@@H](n4ccc(=O)n5ccnc45)[C@H](O[P@](=O)(S)OC[C@H]2O1)[C@@H]3O [Example 5]	2.75
Nc1ncnc2c1ncn2[C@@H]1O[C@@H]2CO[P@@](=O)(S)O[C@@H]3[C@H](O)[C@@H](CO[P@@](=O)(S)O[C@H]2[C@@H]1F)O[C@H]3n1ccc(=O)c2nccn21 [Example 13]	2.38

====

Documented EC50 across a set of compounds
measurement target: full-length WT STING (Homo sapiens, UniProt Q86WV6, H232R)
Construct: made in house; host or cells: Trichoplusia ni insect cells, baculovirus generated in Sf21; crude membranes
Sequence (Q86WV6 with tags, fused parts or gaps H232R): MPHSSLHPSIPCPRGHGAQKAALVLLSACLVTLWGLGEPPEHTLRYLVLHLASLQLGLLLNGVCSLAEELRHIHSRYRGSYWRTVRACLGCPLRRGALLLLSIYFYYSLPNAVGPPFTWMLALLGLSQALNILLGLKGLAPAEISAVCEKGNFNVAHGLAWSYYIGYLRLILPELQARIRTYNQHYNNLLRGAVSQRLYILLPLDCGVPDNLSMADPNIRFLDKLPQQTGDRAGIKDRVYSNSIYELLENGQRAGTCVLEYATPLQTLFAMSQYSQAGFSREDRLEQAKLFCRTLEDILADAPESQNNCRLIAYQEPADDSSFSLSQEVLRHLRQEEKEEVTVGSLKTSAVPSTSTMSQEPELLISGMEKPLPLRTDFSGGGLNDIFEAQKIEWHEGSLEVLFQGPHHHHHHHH
assay details: 3H-cGAMP filtration binding assay (WT STING)
condition context: competition with tritiated cGAMP ligand; T. ni cell membranes overexpressing full-length WT STING
measured parameter: EC50 (nM)

compound	test value
Nc1ncnc2c1ncn2[C@@H]1O[C@@H]2COP(=O)(S)O[C@@H]3[C@H](O)[C@@H](COP(=O)(S)O[C@H]2[C@@H]1F)O[C@H]3n1cnc2c(=O)n3cc[nH]c3nc21 (single isomer, unassigned) [Example 16]	90
Nc1ncnc2c1ccn2[C@H]1C[C@@H]2O[P@@](=O)(S)OC[C@H]3O[C@@H](n4ccc(=O)n5ccnc45)[C@H](O[P@](=O)(S)OC[C@H]2O1)[C@@H]3O [Example 5]	10300
Nc1ncnc2c1ncn2[C@@H]1O[C@@H]2CO[P@@](=O)(S)O[C@@H]3C[C@@H](CO[P@](=O)(S)O[C@H]2[C@@H]1F)O[C@H]3n1ccc(=O)n2ccnc12 (single isomer, unassigned) [Example 20]	83
Nc1ncnc2c1ncn2[C@@H]1O[C@@H]2CO[P@@](=O)(S)O[C@@H]3[C@H](O)[C@@H](CO[P@@](=O)(S)O[C@H]2[C@@H]1F)O[C@H]3n1ccc(=O)c2nccn21 [Example 13]	1960
Nc1ncnc2c1ncn2[C@@H]1O[C@@H]2CO[P@@](=O)(S)O[C@@H]3[C@H](O)[C@@H](CO[P@](=O)(S)O[C@H]2[C@H]1O)O[C@H]3n1ccc(=O)n2ccnc12 [Example 2]	32
